# PROCEDURE_TEXT: chemical genetic growth profiling, strain panel (AID 1159580);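 also: tested at 20 µM; growth read once vehicle control cultures reached saturation at 30 °C; 1 = growth at the plate median or of vehicle wells; lower values mean less growth of the strain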
# SETUP_CONDITIONS: S. cerevisiae deletion strains, growth OD, locus YOR069W, strain VPS5, active compounds read low
Screen size: about 5,500 compounds; about 2,000 (36%) were called active. Not shown: some 18% with an inconclusive outcome. Some of the results follow.
MEASUREMENT_LABEL: normalized growth
Lab note: jot the number down without any unit.

Incoming: Please look at this molecule and report its normalized growth: `Cc1cc(=O)c2c(O)c3c(cc2o1)OC(C)(C)CC3`
Outgoing: 0.997

Incoming: Please look at this molecule and report its normalized growth: `O=c1oc2ccccc2c(O)c1Cc1c(O)c2ccccc2oc1=O`
Outgoing: 0.99

Incoming: Please look at this molecule and report its normalized growth: `CC1=CCc2c(cc3oc(C)cc(=O)c3c2O)OC1`
Outgoing: 0.973

Incoming: Please look at this molecule and report its normalized growth: COCCOC(=O)C1=C(C)NC(C)=C(C(=O)OC(C)C)C1c1cccc([N+](=O)[O-])c1 (stereo not drawn)
Outgoing: 1.01

Incoming: Please look at this molecule and report its normalized growth: `N[C@@H]1CONC1=O`
Outgoing: 1.02

Incoming: Please look at this molecule and report its normalized growth: Cc1cc(=O)c2c(O)c3c(cc2o1)OCC(C)CC3 (stereo not drawn)
Outgoing: 0.96

Incoming: Please look at this molecule and report its normalized growth: `O=c1c2ccccc2oc2ccc(O)cc12`
Outgoing: 0.919

Incoming: Please look at this molecule and report its normalized growth: `COc1c(O)cccc1O`
Outgoing: 0.996

---

For each entry below, report its normalized growth value.
# PROCEDURE_TEXT: chemical genetic growth profiling, strain panel (AID 1159580);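 also: tested at 20 µM; growth read once vehicle control cultures reached saturation at 30 °C; 1 = growth at the plate median or of vehicle wells; lower values mean less growth of the strain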
# SETUP_CONDITIONS: S. cerevisiae deletion strains, growth OD, locus YDR297W, strain sur2, active compounds read low
Out of some 5,500 compounds screened, about 2,000 (36%) were called active. About 18% were inconclusive and are not listed. The list shows a part of the results.
Lab note: jot the number down without any unit.

Incoming: Please look at this compound and report its normalized growth: `COc1ccc2cc3[n+](cc2c1OC)CCc1cc2c(cc1-3)OCO2`
Outgoing: 0.99

Incoming: Please look at this compound and report its normalized growth: COC(=O)C1=C(C)NC(C)=C(C(=O)OCCN(C)Cc2ccccc2)C1c1cccc([N+](=O)[O-])c1 (stereo not given)
Outgoing: 0.972

Incoming: Please look at this compound and report its normalized growth: `O=c1[nH]c2cc(Cl)c(Cl)cc2[nH]c1=O`
Outgoing: 0.99

Incoming: Please look at this compound and report its normalized growth: `O=C(O)c1nc2cc(Cl)c(Cl)cc2[nH]c1=O`
Outgoing: 1.01

Incoming: Please look at this compound and report its normalized growth: CC1(C)O[C@@H]2CC3C4CCC5=CC(=O)C=C[C@]5(C)[C@@]4(F)[C@@H](O)C[C@]3(C)[C@]2(C(=O)CO)O1 (stereo not given in full)
Outgoing: 0.997

Incoming: Please look at this compound and report its normalized growth: `Cc1cc2cc3c(C)cc(=O)oc3c(C)c2o1`
Outgoing: 1.01

Incoming: Please look at this compound and report its normalized growth: `CC(=O)Oc1ccc(-c2cc(=O)c3c(OC(C)=O)cc(OC(C)=O)cc3o2)cc1`
Outgoing: 0.976

Incoming: Please look at this compound and report its normalized growth: `COc1c2c(cc3c1OCO3)CC[N+](C)=C2`
Outgoing: 1.02

Incoming: Please look at this compound and report its normalized growth: `COc1cc([C@@H]2c3cc4c(cc3[C@H](OC(C)=O)[C@H]3COC(=O)[C@H]23)OCO4)cc(OC)c1OC`
Outgoing: 0.998

Incoming: Please look at this compound and report its normalized growth: `NCC(=O)CCC(=O)O`
Outgoing: 0.99

Incoming: Please look at this compound and report its normalized growth: `COc1ccc(-c2cc(=O)c3c(OC(C)=O)cc(OC(C)=O)cc3o2)cc1`
Outgoing: 0.98

Incoming: Please look at this compound and report its normalized growth: `CCCN1C[C@H](CSC)C[C@@H]2c3cccc4[nH]cc(c34)C[C@H]21`
Outgoing: 1.01

Incoming: Please look at this compound and report its normalized growth: CC1(C)O[C@@H]2CC3C4C[C@H](F)C5=CC(=O)C=CC5(C)C4C(O)CC3(C)[C@]2(C(=O)CO)O1 (stereo not given in full)
Outgoing: 1

Incoming: Please look at this compound and report its normalized growth: `CC(=O)Nc1cccc(O)c1`
Outgoing: 0.998

Incoming: Please look at this compound and report its normalized growth: `CC(=O)Nc1ccc(OC(=O)c2ccccc2O)cc1`
Outgoing: 0.977

---

# PROCEDURE_TEXT: chemical genetic growth profiling, strain panel (AID 1159580);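 also: tested at 20 µM; growth read once vehicle control cultures reached saturation at 30 °C; 1 = growth at the plate median or of vehicle wells; lower values mean less growth of the strain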
# SETUP_CONDITIONS: S. cerevisiae deletion strains, growth OD, locus YAL030W, strain snc1, active compounds read low
The whole screen tested about 5,500 compounds, of which about 2,000 (36%) were called active. About 18% were inconclusive and are not listed. This is one part of the list.
MEASUREMENT_LABEL: normalized growth
Lab note: jot the number down without any unit.

Incoming: Please look at this molecule and report its normalized growth: `COc1cc([C@@H]2c3cc4c(cc3[C@H](OC(C)=O)[C@H]3COC(=O)[C@H]23)OCO4)cc(OC)c1OC`
Outgoing: 0.999

Incoming: Please look at this molecule and report its normalized growth: `ClC(Cl)=C(c1ccc(Cl)cc1)c1ccc(Cl)cc1`
Outgoing: 0.982

Incoming: Please look at this molecule and report its normalized growth: CC(=O)OCC(=O)[C@H]1CCC2C3CC=C4C[C@@H](O)CC[C@]4(C)C3CC[C@@]21C (some centres not stated)
Outgoing: 0.993

Incoming: Please look at this molecule and report its normalized growth: CCC(/C=C/[C@@H](C)[C@H]1CCC2C3CC=C4C[C@@H](O)CC[C@]4(C)C3CC[C@@]21C)C(C)C (some centres not stated)
Outgoing: 0.99

Incoming: Please look at this molecule and report its normalized growth: COC(=O)C1=C(C)NC(C)=C(C(=O)OCCN(C)Cc2ccccc2)C1c1cccc([N+](=O)[O-])c1 (configuration not stated)
Outgoing: 1.01

Incoming: Please look at this molecule and report its normalized growth: CCCCOc1cc(CC2CNC(=O)N2)ccc1OC (configuration not stated)
Outgoing: 1.01

Incoming: Please look at this molecule and report its normalized growth: `O=c1cc(-c2ccc(O)c(O)c2)oc2ccccc12`
Outgoing: 0.986

Incoming: Please look at this molecule and report its normalized growth: `COc1c(O)cccc1O`
Outgoing: 1.02

Incoming: Please look at this molecule and report its normalized growth: CCC(CCC(C)[C@H]1CCC2C3CC=C4C[C@@H](O)CC[C@]4(C)C3CC[C@@]21C)C(C)C (some centres not stated)
Outgoing: 1.01

Incoming: Please look at this molecule and report its normalized growth: `CC(C)(Oc1ccc(Cl)cc1)C(=O)O`
Outgoing: 0.996

Incoming: Please look at this molecule and report its normalized growth: CN1CCN2c3ccccc3Cc3ccccc3C2C1 (configuration not stated)
Outgoing: 1

Incoming: Please look at this molecule and report its normalized growth: `O=C1CC[C@]23C=CC(=O)NCCCCNCCCNC(=O)/C=C/c4ccc(c2c4)O[C@@H]3C1`
Outgoing: 1.01

---

For each entry below, report its normalized growth value.
# PROCEDURE_TEXT: chemical genetic growth profiling, strain panel (AID 1159580);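 also: tested at 20 µM; growth read once vehicle control cultures reached saturation at 30 °C; 1 = growth at the plate median or of vehicle wells; lower values mean less growth of the strain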
# SETUP_CONDITIONS: S. cerevisiae deletion strains, growth OD, locus YDR392W, strain spt3, active compounds read low
Out of some 5,500 compounds screened, about 2,000 (36%) were called active. About 18% were inconclusive and are not listed. Some of the results follow.
Lab note: jot the number down without any unit.

Incoming: Please look at this compound and report its normalized growth: CCC(/C=C/[C@@H](C)[C@H]1CCC2C3CC=C4C[C@@H](O)CC[C@]4(C)C3CC[C@@]21C)C(C)C (some centres undefined)
Outgoing: 0.894

Incoming: Please look at this compound and report its normalized growth: C=CCCCCCCCCCCCC(O)CC(O)CO (centres undefined)
Outgoing: 0.918

Incoming: Please look at this compound and report its normalized growth: `CC1=CCc2c(cc3oc(C)cc(=O)c3c2O)OC1`
Outgoing: 0.893

Incoming: Please look at this compound and report its normalized growth: `CC(=O)Nc1ccc(O)cc1`
Outgoing: 0.993

Incoming: Please look at this compound and report its normalized growth: CCC(CCC(C)[C@H]1CCC2C3CC=C4C[C@@H](O)CC[C@]4(C)C3CC[C@@]21C)C(C)C (some centres undefined)
Outgoing: 1.02

Incoming: Please look at this compound and report its normalized growth: `CC(=O)N(O)CCCCCNC(=O)CCC(=O)N(O)CCCCCNC(=O)CCC(=O)N(O)CCCCCN`
Outgoing: 1.2

Incoming: Please look at this compound and report its normalized growth: CC(=O)[C@H]1CCC2C3CC=C4C[C@@H](O)CC[C@]4(C)C3CC[C@@]21C (some centres undefined)
Outgoing: 0.335

Incoming: Please look at this compound and report its normalized growth: CN1CCN2c3ccccc3Cc3ccccc3C2C1 (centres undefined)
Outgoing: 0.881

Incoming: Please look at this compound and report its normalized growth: `CC(C)=CCc1c2c(c(O)c3c(=O)c(O)c(-c4ccccc4)oc13)C=CC(C)(C)O2`
Outgoing: 0.602
